Dear all, this message contains Kd results, target or system Casein kinase I isoform epsilon (Homo sapiens).
Kindly provide the numeric value in nM only, without the unit symbol.

Look over these answered cases.
CCOc1cc2ncc(C#N)c(Nc3ccc(F)c(Cl)c3)c2cc1NC(=O)/C=C/CN(C)C [PELITINIB] | 100
Nc1nc(Nc2ccc(S(N)(=O)=O)cc2)nn1C(=O)c1c(F)cccc1F [JNJ-7706621] | 3600

Here is another compound to look at.
## Input Kindly state the measured Kd obtained for Oc1ccc(-c2nc(-c3ccncc3)c(-c3ccc(F)cc3)[nH]2)cc1 [SB-202190] with Casein kinase I isoform epsilon (Homo sapiens).
## Output 170

---

- System name: Epidermal growth factor receptor (Homo sapiens, UniProt P00533, G719C)
Readout kind: Kd

NC(=O)c1ccc(-c2nc(-c3ccc4c(c3)OCO4)c(-c3ccccn3)[nH]2)cc1 | > 10 µM

Here is another compound to look at.
## Input What value of Kd has been reported for the following compound? Nc1nc(Nc2ccc(S(N)(=O)=O)cc2)nn1C(=O)c1c(F)cccc1F
## Output > 10 µM

---

- System name: Cyclin-G-associated kinase (Homo sapiens, UniProt O14976)
- Sequence (O14976 whole entry): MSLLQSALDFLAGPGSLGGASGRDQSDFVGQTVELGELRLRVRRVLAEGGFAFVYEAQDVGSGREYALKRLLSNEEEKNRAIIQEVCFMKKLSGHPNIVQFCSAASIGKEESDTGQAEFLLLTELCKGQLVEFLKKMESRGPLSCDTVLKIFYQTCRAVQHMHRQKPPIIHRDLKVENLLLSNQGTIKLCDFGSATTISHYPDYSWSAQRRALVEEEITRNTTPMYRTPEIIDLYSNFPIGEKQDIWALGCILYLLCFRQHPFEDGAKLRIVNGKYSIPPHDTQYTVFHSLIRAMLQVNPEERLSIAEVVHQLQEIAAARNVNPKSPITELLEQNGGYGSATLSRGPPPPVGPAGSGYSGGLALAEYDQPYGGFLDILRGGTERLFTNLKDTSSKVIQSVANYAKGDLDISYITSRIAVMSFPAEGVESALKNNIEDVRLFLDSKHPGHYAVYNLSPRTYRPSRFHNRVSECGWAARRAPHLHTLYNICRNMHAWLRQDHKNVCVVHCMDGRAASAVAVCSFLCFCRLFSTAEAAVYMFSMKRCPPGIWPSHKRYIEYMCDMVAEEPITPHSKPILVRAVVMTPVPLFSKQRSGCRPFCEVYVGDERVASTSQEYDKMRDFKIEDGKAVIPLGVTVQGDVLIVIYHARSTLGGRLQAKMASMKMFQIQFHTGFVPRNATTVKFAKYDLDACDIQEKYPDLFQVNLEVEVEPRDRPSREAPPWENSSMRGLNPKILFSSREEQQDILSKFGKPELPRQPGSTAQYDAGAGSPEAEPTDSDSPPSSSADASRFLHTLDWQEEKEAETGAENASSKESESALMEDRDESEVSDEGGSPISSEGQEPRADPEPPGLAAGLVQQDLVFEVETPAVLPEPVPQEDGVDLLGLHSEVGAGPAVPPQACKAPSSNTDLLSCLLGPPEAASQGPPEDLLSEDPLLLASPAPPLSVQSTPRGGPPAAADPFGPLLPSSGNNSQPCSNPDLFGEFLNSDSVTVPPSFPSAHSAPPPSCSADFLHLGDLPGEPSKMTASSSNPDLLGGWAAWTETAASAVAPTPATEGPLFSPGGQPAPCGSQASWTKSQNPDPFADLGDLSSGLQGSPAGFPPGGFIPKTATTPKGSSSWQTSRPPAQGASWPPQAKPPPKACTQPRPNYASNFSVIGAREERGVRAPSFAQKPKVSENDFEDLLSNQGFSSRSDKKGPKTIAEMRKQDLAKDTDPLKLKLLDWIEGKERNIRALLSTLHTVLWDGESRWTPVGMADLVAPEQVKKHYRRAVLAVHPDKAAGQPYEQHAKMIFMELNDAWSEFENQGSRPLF
pKd: −log10 of the molar value.
Readout kind: pKd

## Input Kindly state the measured pKd obtained for NC(=O)c1ccc(-c2nc(-c3ccc4c(c3)OCO4)c(-c3ccccn3)[nH]2)cc1 with Cyclin-G-associated kinase (Homo sapiens, UniProt O14976).
## Output < 5.00

## Input Kindly state the measured pKd obtained for COCC(=O)NC/C=C/c1ccc2ncnc(Nc3ccc(Oc4ccc(C)nc4)c(C)c3)c2c1 with Cyclin-G-associated kinase (Homo sapiens, UniProt O14976).
## Output < 5.00

## Input Kindly state the measured pKd obtained for CCOc1cc2ncc(C#N)c(Nc3ccc(F)c(Cl)c3)c2cc1NC(=O)/C=C/CN(C)C with Cyclin-G-associated kinase (Homo sapiens, UniProt O14976).
## Output 8.19
